Biological target: Taq DNA polymerase (wild type) (Thermus aquaticus, UniProt P19821 1-832)
Experiment: EMSA; 50 mM KCl (enzyme's KCl optimum); 0.25 nM hairpin, 0.5-1000 nM enzyme, 1x Taq buffer (50 mM KCl for wild type, 95 mM KCl for mutants; full composition and pH not stated for this assay), 37 C, 30
Conditions: protein: recombinant, tags: none (His tag removed, pET11), label: 5' 33P, recessed 3' end, 5' overhang
measured metric: pKd
Conceptually, pKd converts a concentration in mol/L into minus its log10.

**Query** Param item = hairpin primer-template (structured_DNA, 3' end blocked with dideoxy TMP (3' ddT; unclear whether the printed 3' T is the ddT or it is added)) DNA: CTCCAGACACGACGCAGTTGCCCGATGGTCGACGTTCGCGAAAGCGAACGTCGACCATCGGGCAACT ; retrieve measured pKd.
**Result** 6.99
